As shown below, each of these molecules has a reported inhibition at 1 µg/mL value.
Tested on: Candida albicans
PROCEDURE DETAILS: Antifungal activity against Candida albicans SC5314 assessed as inhibition of fungal growth at 1 ug/ml incubated for 18 hrs by M27-A3 based microdilution method relative to control
Assay type: functional

ITEM SMILES: O=C1CN=C(c2ccccc2Br)c2cc(F)ccc2N1CCCn1nnc(-c2ccc(Cl)cc2)n1
inhibition at 1 µg/mL (%): 99
//
ITEM SMILES: ClCCCSc1nnnn1-c1ccccc1
inhibition at 1 µg/mL (%): 98.5
//
ITEM SMILES: O=C1CN=C(c2ccccc2Br)c2cc(F)ccc2N1
inhibition at 1 µg/mL (%): 99
//
ITEM SMILES: Cc1ccc(-c2nnn(CCCN3C(=O)CN=C(c4ccccc4Br)c4cc(F)ccc43)n2)cc1
inhibition at 1 µg/mL (%): 93.8
//
ITEM SMILES: O=C1CN=C(c2ccccc2Br)c2cc(F)ccc2N1CCCn1nnc(-c2ccccc2Cl)n1
inhibition at 1 µg/mL (%): 99.1
//
ITEM SMILES: COc1ccc(-n2nnnc2SCCCN2C(=O)CN=C(c3ccccc3Br)c3cc(F)ccc32)cc1
inhibition at 1 µg/mL (%): 98.8
//
ITEM SMILES: C[C@@H]1[C@H](O)[C@@H](C)/C=C/C=C/C=C/C=C/C=C/C=C/C=C/[C@H](O[C@@H]2O[C@H](C)[C@@H](O)[C@H](N)[C@@H]2O)C[C@@H]2O[C@](O)(C[C@@H](O)C[C@@H](O)[C@H](O)CC[C@@H](O)C[C@@H](O)CC(=O)O[C@H]1C)C[C@H](O)[C@H]2C(=O)O
inhibition at 1 µg/mL (%): 100
//
ITEM SMILES: O=C1CN=C(c2ccccc2Br)c2cc(F)ccc2N1CCCSc1nnnn1-c1ccccc1
inhibition at 1 µg/mL (%): 99.8
//
ITEM SMILES: COc1ccc(-n2nnnc2SCCCCl)cc1
inhibition at 1 µg/mL (%): 99.9
//
ITEM SMILES: O=C1CN=C(c2ccccc2Br)c2cc(F)ccc2N1CCCn1nnc(-c2ccccc2)n1
inhibition at 1 µg/mL (%): 99.4
